test system: HCT-116 colon; experiment: NCI-60 one-dose screen, 48 h (100 = growth as untreated, 0 = no growth, -100 = all killed); conditions: 10 µM unless noted
Compounds without any hit were thinned out: in the full panel of roughly 83,000, 20% have a hit.
Rule: growth below 20% gives True, anything at or above gives False.

Before answering, review these 5 worked examples.
| compound | discreteLabel |
| --- | --- |
| O=C(OCc1ccc2cccc(O)c2n1)N1CCN(C(=O)c2cc3cc(F)ccc3[nH]2)CC1 | True |
| N#Cc1c(-c2ccccc2)cc(-c2ccccc2)n(CCCCCC(=O)Nc2ccccc2N)c1=O | False |
| O=C1/C(=C/c2ccc(Cl)cc2)COc2ccc(O)c(O)c21 | True |
| COc1cc(-c2cc(-c3cccs3)c(C#N)c(N3CCOCC3)n2)cc(OC)c1OC | False |
| C=CCc1c(O)c(C(=O)/C=C/c2ccc(Cl)cc2)c(OC)c2ccoc12 | True |

# input Quick check: growth of CN(Cc1ccc(C(F)(F)F)cc1)CC(O)C(=O)Nc1ccc(Cl)cc1 (centres undefined) under 20%?
# output True

# input I wonder whether "O=C(Nc1cccc([N+](=O)[O-])c1)c1cc2ccccc2cc1O" has growth below 20%. Can you tell?
# output True

# input Consider "CC(=O)[C@@H]1CCC=C2CC[C@]3(C)[C@@H](CC[C@@H]4[C@@]5(C)CCCNC(C)(C)[C@@H]5CC[C@]43C)[C@H]21" . Does its growth lie strictly below 20%?
# output True

* * *

Documented growth across a set of molecules
test system: SK-OV-3 ovarian; assay: NCI-60 one-dose screen, 48 h (100 = growth as untreated, 0 = no growth, -100 = all killed); details: 10 µM unless noted
This is part of a sample that, as a whole, favours compounds with a hit. Of some 83,000 tested, about 20% had one in any assay. Active and inactive are the calls of the source. Rule for the calls: active = growth percent below 10; inactive = the rest.

Answered examples (4):
| molecule | systemUnderTest | testResult |
| --- | --- | --- |
| Cc1ccc2c3c(c(=O)[nH]c2c1)C1(C(C#N)=C(N)O3)c2cc(Br)ccc2-c2ccc(Br)cc21 | SK-OV-3 ovarian | 47.7% (inactive) |
| COc1ccc(C(=S)N2CCN(c3ccccc3Cl)CC2)cc1OC | SK-OV-3 ovarian | 120% (inactive) |
| Cc1ccc(S(=O)(=O)N2CCCC2CO)cc1 (configuration not stated) | SK-OV-3 ovarian | 102% (inactive) |
| O=C1Nc2ccc(Br)cc2/C1=N/c1n[nH]c(=S)s1 | SK-OV-3 ovarian | 93.2% (inactive) |

# input Using the record for "CCOC(=O)C#Cc1c(C(=O)OCC)nnn1[C@@H]1O[C@H](CO)[C@H]2OC3(CCCCC3)O[C@H]21" , report its growth.
# output 98.1% (inactive)

# input Which measured growth value corresponds to "C/C(=N\NC(=O)c1ccccc1O)c1cccc(/C(C)=N/NC(=O)c2ccccc2O)n1" ?
# output 45.6% (inactive)

# input # growth lookup, item "CCc1ccc(Oc2cn[nH]c2-c2ccc(OCCc3ccc(F)cc3)cc2O)cc1"
# output 102% (inactive)

# input Which value of growth has been reported for CCN1C(=O)N(CC)C2C1NN=c1s/c(=C\c3cccc([N+](=O)[O-])c3)c(=O)n12 (configuration not stated) in the records?
# output 38.3% (inactive)

# input Item "Nc1nc2c([nH]1)c1[nH]c3ccccc3c1c1[nH]c3ccccc3c21" has what recorded growth?
# output 86.1% (inactive)

# input Look at this molecule and give its reported growth. "CC1(C)CCC(S(=O)(=O)c2ccc3c(c2)/C(=N\O)c2cc(S(=O)(=O)N4CCC(O)(c5cccc(C(F)(F)F)c5)CC4)ccc2-3)CC1"
# output -99.6% (active)

* * *

tested on: LOX IMVI melanoma; experiment: NCI-60 one-dose screen, 48 h (100 = growth as untreated, 0 = no growth, -100 = all killed); conditions: 10 µM unless noted
The panel holds about 83,000 compounds, 20% with a hit somewhere; the sample as a whole holds those more often. Active and inactive are the calls of the source. How the source made its calls: active means growth percent below 10; inactive means the rest.
The entries below are paired with their reported growth.

Sample records with growth:
| molSmiles | growth |
| --- | --- |
| CC1(C)CCC(S(=O)(=O)c2ccc3c(c2)/C(=N\O)c2cc(S(=O)(=O)N4CCC(O)(c5cccc(C(F)(F)F)c5)CC4)ccc2-3)CC1 | -86.1% (active) |
| COc1ccc2cc(-c3ccc(NC(C)=O)c(=O)o3)ccc2c1 | 104% (inactive) |
| O=C(Cn1c(=O)sc2nc3ccccc3nc21)Nc1ncc(Cc2cccc(Cl)c2Cl)s1 | 94.6% (inactive) |
| Cn1cc(-c2csc(-c3ccc(Cl)cc3)n2)c2cccnc21 | 1.66% [100 µM] (active) |
| CN(C)Cc1ccc(NC(=O)c2cncc(C#Cc3cnc(N)c4ncccc34)c2)cc1F | -65% (active) |

# input Which growth is listed for "O=S(=O)(Nc1cc(Br)c(O)c2ccccc12)c1ccc(F)cc1" ?
# output 0.868% (active)

# input Param item = "COc1cc(-c2nc(SCCC(C)C)nc(Nc3ccccc3Cl)c2C#N)cc(OC)c1OC" ; retrieve measured growth.
# output 101% (inactive)

# input Look up growth: "O=C(COc1ccc(-c2nc3ccccc3[nH]2)cc1)N=Nc1c(O)[nH]c2ccc(Cl)cc12"
# output 60.7% (inactive)

# input Report growth for "N#Cc1cccc(-c2c(-c3ccc4ccccc4c3)oc3ccccc3c2=O)c1" please.
# output 50.7% (inactive)

* * *

tested on: MOLT-4 leukemia; assay: NCI-60 one-dose screen, 48 h; conditions: 10 µM unless noted
This is part of a sample that, as a whole, favours compounds with a hit. Of some 83,000 tested, about 20% had one in any assay. Calls of active or inactive are those of the source. How the source made its calls: active means growth percent below 10; inactive means the rest.
Returns: one label drawn from 1.0 for active, 0.0 for inactive

These recorded examples may help you get a feel for the data.
| compound | discreteLabel |
| --- | --- |
| COc1ccc2cc(C(=O)c3coc4ccc(O)cc34)ccc2c1 | 0.0 |
| CCn1c(=S)[nH]c2c(=O)n(C)c(=O)n(C)c21 | 0.0 |
| Cc1cc2c(O)c(-c3cccc(Cl)c3)c3sc(=O)oc3c2cc1C | 0.0 |
| Fc1ccc(Nc2nc3nonc3nc2Nc2ccc(I)cc2)cc1 | 1.0 |
| COc1cc2c(c(OC)c1OC)CCC(c1cccc(C(=O)Nc3cccc(Br)c3)c1)O2 (stereo unspecified) | 0.0 |

Please look at the following compound next.
# input Kindly provide the recorded test outcome for the following compound: "Oc1ccc(CCn2c(O)c(/C=C3\CN=c4ccccc4=N3)sc2=S)cc1"
# output 0.0

* * *

test system: HT29 colon; test: NCI-60 one-dose screen, 48 h; conditions: 10 µM unless noted
About 83,000 compounds went through this panel and 20% of them were active in at least one assay; those are over-represented in the sample as a whole. Activity calls are given as the source filed them. How the source made its calls: active means growth percent below 10; inactive means the rest.
Output constraint: value belongs to active, inactive

Worked set:
| compound | discreteLabel |
| --- | --- |
| Cc1noc(C)c1C(=O)OCc1coc2ccccc2c1=O | inactive |
| O=C(CI)NC1Oc2ccccc2-c2oc(=O)c(-c3ccccc3)cc21 (stereo not given) | active |
| Fc1cc2c(cc1Cl)N(c1ncnc3ccc(-c4cnc5[nH]ncc5c4)cc13)CC2 | inactive |

# input Which outcome was assigned to "O=C(O)c1ccc(-n2cc(/C=N/Nc3ccc(F)cc3)c(-c3cc4ccccc4oc3=O)n2)cc1" in this test?
# output inactive

# input Just curious, what result did "COC(=O)c1c2c(c(C)[n+]([O-])c1C)C(=O)C=C(NCc1ccc(Br)cc1)C2=O" get here?
# output active

* * *

test system: KM12 colon; experiment: NCI-60 one-dose screen, 48 h; settings: 10 µM unless noted
About 83,000 compounds went through this panel and 20% of them were active in at least one assay; those are over-represented in the sample as a whole. Activity calls are given as the source filed them. Rule for the calls: active = growth percent below 10; inactive = the rest.
Return exactly one item of active, inactive

Use these answered entries as a reference point.
| compound | discreteLabel |
| --- | --- |
| CCOC(=O)C(=Cc1cccc(Cl)c1)C(=O)OCC | inactive |
| COc1cc(-n2cc(-c3cc(O)c(C/C=C(\C)CCC=C(C)C)c(O)c3)nn2)cc2c1O[C@]1(C)CC[C@@H](O)C(C)(C)[C@H]1C2 | inactive |
| O=C(Nc1cccc([N+](=O)[O-])c1)c1cc2ccccc2cc1O | active |

# input In this assay, the call recorded for "CCCCCC(=O)OCC(=O)O[C@@H]1C[C@]2(C(C)C)O[C@@]1(C)[C@@H]1CC[C@@H](C)[C@H]1[C@@H]2OC(=O)/C=C/c1ccccc1" was what?
# output inactive

# input In this assay, the call recorded for "C/C(Nc1ccc(Cl)c(Cl)c1)=C1\CCOC1=O" was what?
# output inactive

# input For "COc1cc(-c2cc(-c3ccc(N(C)C)cc3)nc(N3CCC(O)CC3)c2C#N)cc(OC)c1OC" , which call appears in the assay record?
# output active

# input In this assay, the call recorded for CC(O)c1cnc(/C=C2\SC(=S)N(Cc3ccccc3)C2=O)s1 (centres undefined) was what?
# output inactive

# input GET /call?item= "O=C(Cn1cc(CN2CCCCCC2)nn1)Nc1ccc2c(ccn2Cc2ccccc2)c1" returns the recorded outcome of this test.
# output inactive

# input Hi, sorry to bother you, what did the test record for "N#Cc1c(N)nnn1Cc1cc(=O)oc2c1ccc1ccccc12" ?
# output inactive
